measurement target: Methyl-CpG-binding domain protein 4 (Homo sapiens);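 further: MBD4 activity read as fluorescence at 594 nm from cleavage and release of a quenched duplex DNA oligonucleotide, with APE1 coupled to incise the strand and raise turnover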
test parameters: Compound Concentration 10.0 uM, Hit No
Description: Inhibition of MBD4 by quantifying inhibition of MBD4-mediated cleavage and dissociation of quenched duplex DNA oligonucleotides, measured as fluorescence at 594 nm. To generate a functional strand incision and increase turn-over this assay is coupled to APE1.
Each record's inhibition is compared with range A (below 20%), range B (20% to below 50%), range C (50% or more) to give its class.

| compound | category |
| --- | --- |
| Cc1c(NC(=O)c2cc(C(N)=O)nc3cc(F)ccc23)c(C(F)(F)F)nn1Cc1ccc(C#N)cc1 | range C |
| CCCn1c(=O)c2nc(C34CC5CC(CC3C5)C4)[nH]c2n(CCC)c1=O | range A |
| O=c1ccc2ccc(OCCCCN3CCN(c4cccc5sccc45)CC3)cc2[nH]1 | range A |
| COc1cc(C(=O)N(CCCc2ccccc2)Cc2ccc(CC(=O)O)cc2)cc(OC)c1C | range B |
| O=S(=O)(c1ccccc1)N(CC(F)(F)F)c1ccc(C(O)(C(F)(F)F)C(F)(F)F)cc1 | range C |
| O=C(O)c1cccc(/C=C2/C[C@@H]3[C@@H](/C=C/[C@H](O)C4CCCCC4)[C@H](O)C[C@@H]3O2)c1 | range A |
| Cc1cccc(CN2CCN(C(c3ccccc3)c3ccc(Cl)cc3)CC2)c1 (stereo unspecified) | range C |
| CNc1nc(-c2ccc3c(N)n[nH]c3c2)cc(N2C[C@@H](C(=O)NC3CCCCC3)CC[C@H]2C)n1 | range B |
| N/C(=N\C(=O)c1nc(Cl)c(N)nc1N)NCc1ccccc1 | range B |
| CS(=O)(=O)c1cccc(NC(=O)N(Cc2ccc(C(=O)Nc3nnn[nH]3)cc2)c2ccc(C3CCCCC3)cc2)c1 | range B |
| C[C@]1(O)C[C@@H](c2nc(-c3ccc4ccc(-c5ccccc5)nc4c3)c3c(N)nccn32)C1 | range A |
| Cn1c(C2(NC(=O)c3ccc(NCC4CCCCC4)nc3)CCC2)nc2ccc(/C=C/C(=O)O)cc21 | range C |
| Cn1c(SCc2ccc(C(C)(C)C)cc2)nc(N)cc1=O | range A |
| O=C(NCC(=O)N1CC[C@H](N[C@H]2CC[C@@](O)(c3ccc(-c4ncccn4)cn3)CC2)C1)c1cccc(C(F)(F)F)c1 | range A |
| O=C(O)c1ccnc(N2CC(O)(c3ccc(OCc4c(-c5c(Cl)cccc5Cl)noc4C4CC4)cc3Cl)C2)c1 | range C |
| CC(C)N(CCCCOCC(=O)NS(C)(=O)=O)c1cnc(-c2ccccc2)c(-c2ccccc2)n1 | range C |
| CCNC(=O)[C@H]1O[C@@H](n2cnc3c(N)nc(NCCc4ccc(CCC(=O)O)cc4)nc32)[C@H](O)[C@@H]1O | range A |
| CCCNS(=O)(=O)Nc1ncnc(OCCOc2ncc(Br)cn2)c1-c1ccc(Br)cc1 | range B |
| CN1CCN2c3ccccc3Cc3ccccc3C2C1 (stereo unspecified) | range A |
| N[C@@H](Cn1cc(F)c(=O)[nH]c1=O)C(=O)O | range A |
| O=C(NCCCN1CCOC1=O)c1cnc(NCc2cc(Br)ccc2Br)nc1NC1CCCC1 | range A |
| C[C@H](NC(=O)Nc1cc2[nH]ncc2c(CO)n1)c1ccccn1 | range B |
| CN1CCN(c2ccc(/C=C(\C#N)c3ccccc3Br)cc2)CC1 | range C |
| O=C(Cc1ccccc1)Nc1nc2ccc(Cl)cc2c2nc(-c3ccco3)nn12 | range A |
| O=c1[nH]c2ccccc2n1CCCN1CCN(C(c2ccccc2)c2ccccc2)CC1 | range C |
| O=C(Nc1ccc(C(O)(C(F)(F)F)C(F)(F)F)cc1)c1ccc(C(F)(F)F)cc1 | range C |
| O=c1nc(-c2ccccn2)sc2ccccc12 | range C |
| CCCCN(CCCC)C(=O)CN1C[C@@H](c2ccc3c(c2)OCO3)[C@H](C(=O)O)[C@H]1c1ccc(OC)cc1 | range B |
| NCCc1c[nH]cn1 | range A |
| Clc1ccc(-c2nc3sccn3c2/C=N/OCc2ccc(Cl)c(Cl)c2)cc1 | range A |
